Hello, the source for this data is patent US7411002B2, in case you need it.

System: LPS-induced NF-κB induction in human embryonic kidney 293 cells cotransfected with TLR4, CD14 and MD2
Assay: Inhibition of LPS induction of NF-κB (seAP reporter) in HEK 293 cells cotransfected with TLR4, CD14 and MD2
Type: cell-based
Settings: Homo sapiens, HEK293; inhibition of LPS-induced NF-κB induction, HEK 293 TLR4/CD14/MD2 reporter cells; read-out: NFκβ inhibition IC50 value
pIC50: −log10 of the molar value.
Recorded pIC50, one value per entry.
observable: pIC50

>>> assay_result("CCCCCCCCS(=O)(=O)NCCCNCCCNCCCCNCCCN")
6.09
>>> assay_result("CCCCCCCCCCCCCCCCS(=O)(=O)NCCCN(CCCNCCCCNCCCN)CCCNS(=O)(=O)CCCCCCCCCCCCCCCC")
5.31
>>> assay_result("CCCCCCCCCCCCS(=O)(=O)NCCCN(CCCNCCCCNCCCN)CCCNS(=O)(=O)CCCCCCCCCCCC")
4.88
>>> assay_result("CCCCCCCCCCS(=O)(=O)NCCCNCCCNCCCCNCCCN")
6.56
>>> assay_result("CCCCCCCCS(=O)(=O)NCCCNCCCCNCCCN")
4.48
>>> assay_result("CCCCCCCCCCCCS(=O)(=O)NCCCNC/C=C/CNCCCN")
6.28
>>> assay_result("CCCCCCCCCCCCCCCCS(=O)(=O)NCCCN(CCCNCCCNCCCCNCCCN)CCCNS(=O)(=O)CCCCCCCCCCCCCCCC")
5.57
>>> assay_result("CCCCCCCCCCCCCCCCS(=O)(=O)NCCCNCCCCNCCCN")
6.55
>>> assay_result("CCCCCCCCCCCCCCCCS(=O)(=O)NCCCOCCCCOCCCN")
4.65

----------
Recorded pEC50, one value per entry.
Assay: Rapid-throughput BODIPY-TR cadaverine (BC) fluorescence displacement assay for binding affinity to LPS
Conditions: half-maximal effective displacement of BODIPY-TR cadaverine probe from LPS; 50 mM Tris buffer, pH 7.4; read-out: Binding affinity (BC displacement) ED50 value
pEC50: −log10 of the molar value.
observable: pEC50

>>> assay_result("CCCCCCCCS(=O)(=O)NCCNCCCNCCN [MQTS 2411]")
4.97
>>> assay_result("CCCCCCCCS(=O)(=O)NCCCNCCCNCCCN [MQTS 2413]")
5.17
>>> assay_result("CCCCCCCCCCCCCCCCCCS(=O)(=O)NCCCNCCCNCCCCNCCCN [MQTS 2380]")
5.35
>>> assay_result("CCCCCCCCCCCCCCCCCCS(=O)(=O)NCCCN(CCCNCCCCNCCCN)CCCNS(=O)(=O)CCCCCCCCCCCCCCCCCC [MQTS 2394]")
4.55
>>> assay_result("CCCCCCCCCCCCCCCCS(=O)(=O)NCCN(CCN)CCN [MQTS 2410]")
5.45
>>> assay_result("CCCCCCCCCCCCS(=O)(=O)NCCCNCCCNCCCCNCCCN [MQTS 2382]")
5.53
>>> assay_result("CCCCCCCCS(=O)(=O)NCCCN(CCCNCCCNCCCCNCCCN)CCCNS(=O)(=O)CCCCCCCC [MQTS 2389]")
5.58
>>> assay_result("CCCCCCCCCCCCCCCCS(=O)(=O)NCCCNCCCCNCCCN [MQTS 2358]")
5.41
>>> assay_result("CCCCCCCCCCCCCCCCS(=O)(=O)N(CCCN)CCCCNCCCN [MQTS 2363]")
4.34
>>> assay_result("CCCCCCCCCCCCCCCCS(=O)(=O)NCCCNCCCNCCCCNCCCN [MQTS 2383]")
5.33
>>> assay_result("CCCCCCCCCCCCCCCCS(=O)(=O)NCCCN(CCCNCCCNCCCCNCCCN)CCCNS(=O)(=O)CCCCCCCCCCCCCCCC [MQTS 2391]")
5.03
>>> assay_result("CCCCCCCCCCCCS(=O)(=O)NCCCNCCCNCCCN [MQTS 2414]")
5.37
>>> assay_result("CCCCCCCCCCS(=O)(=O)NCCCN(CCCNCCCNCCCCNCCCN)CCCNS(=O)(=O)CCCCCCCCCC [MQTS 2417]")
5.94
>>> assay_result("CCCCCCCCCCCCCCCCS(=O)(=O)NCCCN(CCCNCCCCNCCCN)CCCNS(=O)(=O)CCCCCCCCCCCCCCCC [MQTS 2396]")
4.58
>>> assay_result("CCCCCCCCS(=O)(=O)NCCCNCCCCNCCCN [MQTS 2351]")
5.18
>>> assay_result("CCCCCCCCCCCCS(=O)(=O)NCCCN(CCCNCCCNCCCCNCCCN)CCCNS(=O)(=O)CCCCCCCCCCCC [MQTS 2390]")
5.17
>>> assay_result("CCCCCCCCCCS(=O)(=O)NCCCNCCCCNCCCN [MQTS 2377]")
5.43
>>> assay_result("CCCCCCCCCCS(=O)(=O)NCCCNCCCNCCCCNCCCN [MQTS 2381]")
5.54
>>> assay_result("CCCCCCCCCCCCS(=O)(=O)NCCCNC/C=C/CNCCCN [MQTS 2416]")
5.42
>>> assay_result("CCCCCCCCS(=O)(=O)NCCCNCCCNCCCCNCCCN [MQTS 2379]")
5.55
>>> assay_result("CCCCCCCCCCCCCCCCS(=O)(=O)NCCCN(CCCN)CCCN [MQTS 2409]")
4.91
>>> assay_result("CCCCCCCC(=O)NCCCN(CCCNCCCNCCCCNCCCN)CCCNC(=O)CCCCCCC [MQTS 2418]")
6.00
>>> assay_result("CCCCCCCCCCCCS(=O)(=O)NCCCNCCCCNCCCN [MQTS 2357]")
5.57
>>> assay_result("CCCCCCCCCCCCS(=O)(=O)NCCCN(CCCNCCCCNCCCN)CCCNS(=O)(=O)CCCCCCCCCCCC [MQTS 2420]")
5.40
>>> assay_result("CCCCCCCC(=O)NCCCN(CCCNCCCCNCCCN)CCCNC(=O)CCCCCCC [MQTS 2421]")
5.88
>>> assay_result("CCCCCCCCCCS(=O)(=O)NCCCN(CCCNCCCCNCCCN)CCCNS(=O)(=O)CCCCCCCCCC [MQTS 2419]")
5.62
>>> assay_result("CCCCCCCCS(=O)(=O)NCCCN(CCCNCCCCNCCCN)CCCNS(=O)(=O)CCCCCCCC [MQTS 2406]")
5.66
>>> assay_result("CCCCCCCCS(=O)(=O)NCCCNC/C=C/CNCCCN [MQTS 2415]")
4.90
>>> assay_result("CCCCCCCCCCCCCCCCCCS(=O)(=O)NCCCNCCCCNCCCN [MQTS 2378]")
5.22
>>> assay_result("CCCCCCCCCCCCS(=O)(=O)NCCNCCCNCCN [MQTS 2412]")
5.32

----------
Recorded pIC50, one value per entry.
System: LPS-induced NF-κB induction in human embryonic kidney 293 cells cotransfected with TLR4, CD14 and MD2
Assay: Inhibition of LPS induction of NF-κB (seAP reporter) in HEK 293 cells cotransfected with TLR4, CD14 and MD2
Format: cell-based
Conditions: Homo sapiens, HEK293; inhibition of LPS-induced NF-κB induction, HEK 293 TLR4/CD14/MD2 reporter cells; read-out: NFκβ inhibition IC50 value
pIC50: −log10 of the molar value.
observable: pIC50

>>> assay_result("CCCCCCCCS(=O)(=O)NCCCNC/C=C/CNCCCN")
4.90
>>> assay_result("CCCCCCCCS(=O)(=O)NCCNCCCNCCN")
4.86
>>> assay_result("CCCCCCCCCCCCCCCCS(=O)(=O)NCCN(CCN)CCN")
6.42
>>> assay_result("CCCCCCCCCCCCCCCCS(=O)(=O)N(CCCN)CCCCNCCCN")
5.57
>>> assay_result("CCCCCCCCCCCCS(=O)(=O)NCCNCCCNCCN")
6.16

----------
Recorded pIC50, one value per entry.
System: LPS-induced NF-κB induction in human embryonic kidney 293 cells cotransfected with TLR4, CD14 and MD2
Test: Inhibition of LPS induction of NF-κB (seAP reporter) in HEK 293 cells cotransfected with TLR4, CD14 and MD2
Assay type: cell-based
Conditions: Homo sapiens, HEK293; inhibition of LPS-induced NF-κB induction, HEK 293 TLR4/CD14/MD2 reporter cells; read-out: NFκβ inhibition IC50 value
pIC50: −log10 of the molar value.
observable: pIC50

>>> assay_result("CCCCCCCCCCS(=O)(=O)NCCCN(CCCNCCCCNCCCN)CCCNS(=O)(=O)CCCCCCCCCC")
5.29
>>> assay_result("CCCCCCCCCCCCCCCCCCS(=O)(=O)NCCCNCCCNCCCCNCCCN")
5.97
>>> assay_result("CCCCCCCCCCCCCCCCCCS(=O)(=O)NCCCNCCCCNCCCN")
6.44
>>> assay_result("CCCCCCCCCCCCS(=O)(=O)NCCCN(CCCNCCCNCCCCNCCCN)CCCNS(=O)(=O)CCCCCCCCCCCC")
4.79
>>> assay_result("CCCCCCCCCCCCS(=O)(=O)NCCCNCCCNCCCN")
6.44
>>> assay_result("CCCCCCCCCCCCCCCCS(=O)(=O)NCCCN(CCCN)CCCN")
5.04
>>> assay_result("CCCCCCCCCCS(=O)(=O)NCCCN(CCCNCCCNCCCCNCCCN)CCCNS(=O)(=O)CCCCCCCCCC")
5.66
>>> assay_result("CCCCCCCC(=O)NCCCN(CCCNCCCCNCCCN)CCCNC(=O)CCCCCCC")
5.01
>>> assay_result("CCCCCCCCCCCCS(=O)(=O)NCCCNCCCCNCCCN")
6.39
